Test system: Staphylococcus aureus
Experiment: Antimicrobial activity against extended spectrum-lactamase-carbapenemas producing Staphylococcus aureus strain IHT 99040 assessed as reduction in bacterial growth incubated for 48 hrs by microdilution method
Format: functional
The entries below come with measured MIC values attached.
// units = mg/L; emit number, no label

Examples from the recorded data:
compound-structure	observed-measurement
NCCCCN1C(=O)N(CCCCN)C(=O)C(Cc2cc(Br)cc(Br)c2)(Cc2cc(Br)cc(Br)c2)C1=O.O=C(O)C(F)(F)F.O=C(O)C(F)(F)F	4
N=C(N)NCCCCN1C(=O)N(CCCCNC(=N)N)C(=O)C(Cc2ccc(F)c3ccccc23)(Cc2ccc(F)c3ccccc23)C1=O.O=C(O)C(F)(F)F.O=C(O)C(F)(F)F	2
NCCCCN1C(=O)N(CCCCN)C(=O)C(Cc2ccc(Br)c(Cl)c2)(Cc2ccc(Br)c(Cl)c2)C1=O.O=C(O)C(F)(F)F.O=C(O)C(F)(F)F	4
N=C(N)NCCCCN1C(=O)N(CCCCNC(=N)N)C(=O)C(Cc2ccc3ccccc3c2)(Cc2ccc3ccccc3c2)C1=O.O=C(O)C(F)(F)F.O=C(O)C(F)(F)F	8
NCCCCN1C(=O)N(CCCCN)C(=O)C(Cc2ccc3ccccc3c2)(Cc2ccc3ccccc3c2)C1=O.O=C(O)C(F)(F)F.O=C(O)C(F)(F)F	8
N=C(N)NCCCCN1C(=O)N(CCCCNC(=N)N)C(=O)C(Cc2ccc(C(F)(F)F)cc2)(Cc2ccc(C(F)(F)F)cc2)C1=O.O=C(O)C(F)(F)F.O=C(O)C(F)(F)F	8

stdin: For the record `CC(C)(C)c1ccc(CC2(Cc3ccc(C(C)(C)C)cc3)C(=O)N(CCCCN)C(=O)N(CCCCN)C2=O)cc1.O=C(O)C(F)(F)F.O=C(O)C(F)(F)F` , what value of MIC is listed for Staphylococcus aureus?
stdout: 8

stdin: // query: `NCCCCN1C(=O)N(CCCCN)C(=O)C(Cc2ccc(F)c3ccccc23)(Cc2ccc(F)c3ccccc23)C1=O.O=C(O)C(F)(F)F.O=C(O)C(F)(F)F`
stdout: 8

stdin: // query: `CC(C)(C)c1ccc(CC2(Cc3ccc(C(C)(C)C)cc3)C(=O)N(CCCCNC(=N)N)C(=O)N(CCCCNC(=N)N)C2=O)cc1.O=C(O)C(F)(F)F.O=C(O)C(F)(F)F`
stdout: 2

stdin: // query: `N=C(N)NCCCCN1C(=O)N(CCCCNC(=N)N)C(=O)C(Cc2cc(C(F)(F)F)cc(C(F)(F)F)c2)(Cc2cc(C(F)(F)F)cc(C(F)(F)F)c2)C1=O.O=C(O)C(F)(F)F.O=C(O)C(F)(F)F`
stdout: 2

stdin: // query: `N=C(N)NCCCCN1C(=O)N(CCCCNC(=N)N)C(=O)C(Cc2ccc(Br)c(Cl)c2)(Cc2ccc(Br)c(Cl)c2)C1=O.O=C(O)C(F)(F)F.O=C(O)C(F)(F)F`
stdout: 2

stdin: // query: `CC(C)(C)c1cc(CC2(Cc3cc(C(C)(C)C)cc(C(C)(C)C)c3)C(=O)N(CCCCN)C(=O)N(CCCCN)C2=O)cc(C(C)(C)C)c1.O=C(O)C(F)(F)F.O=C(O)C(F)(F)F`
stdout: 2

stdin: // query: `N=C(N)NCCCCN1C(=O)N(CCCCNC(=N)N)C(=O)C(Cc2cc(Br)cc(Br)c2)(Cc2cc(Br)cc(Br)c2)C1=O.O=C(O)C(F)(F)F.O=C(O)C(F)(F)F`
stdout: 2

###

System: Enterococcus faecium
Assay: Antimicrobial activity against extended spectrum-lactamase-carbapenemas producing Enterococcus faecium strain 50901530 assessed as reduction in bacterial growth incubated for 48 hrs by microdilution method
Assay type: functional
value-type: MIC (µg/mL)
// units = µg/mL; emit number, no label

Examples from the recorded data:
compound-structure	MIC (µg/mL)
N=C(N)NCCCCN1C(=O)N(CCCCNC(=N)N)C(=O)C(Cc2ccc(Br)c(Cl)c2)(Cc2ccc(Br)c(Cl)c2)C1=O.O=C(O)C(F)(F)F.O=C(O)C(F)(F)F	2
N=C(N)NCCCCN1C(=O)N(CCCCNC(=N)N)C(=O)C(Cc2cc(C(F)(F)F)cc(C(F)(F)F)c2)(Cc2cc(C(F)(F)F)cc(C(F)(F)F)c2)C1=O.O=C(O)C(F)(F)F.O=C(O)C(F)(F)F	2
NCCCCN1C(=O)N(CCCCN)C(=O)C(Cc2cc(Br)cc(Br)c2)(Cc2cc(Br)cc(Br)c2)C1=O.O=C(O)C(F)(F)F.O=C(O)C(F)(F)F	4
N=C(N)NCCCCN1C(=O)N(CCCCNC(=N)N)C(=O)C(Cc2ccc3ccccc3c2)(Cc2ccc3ccccc3c2)C1=O.O=C(O)C(F)(F)F.O=C(O)C(F)(F)F	8
CC(C)(C)c1cc(CC2(Cc3cc(C(C)(C)C)cc(C(C)(C)C)c3)C(=O)N(CCCCN)C(=O)N(CCCCN)C2=O)cc(C(C)(C)C)c1.O=C(O)C(F)(F)F.O=C(O)C(F)(F)F	2
N=C(N)NCCCCN1C(=O)N(CCCCNC(=N)N)C(=O)C(Cc2ccc(C(F)(F)F)cc2)(Cc2ccc(C(F)(F)F)cc2)C1=O.O=C(O)C(F)(F)F.O=C(O)C(F)(F)F	8
CC(C)(C)c1cc(CC2(Cc3cc(C(C)(C)C)cc(C(C)(C)C)c3)C(=O)N(CCCCNC(=N)N)C(=O)N(CCCCNC(=N)N)C2=O)cc(C(C)(C)C)c1.O=C(O)C(F)(F)F.O=C(O)C(F)(F)F	2
CC(C)(C)c1ccc(CC2(Cc3ccc(C(C)(C)C)cc3)C(=O)N(CCCCN)C(=O)N(CCCCN)C2=O)cc1.O=C(O)C(F)(F)F.O=C(O)C(F)(F)F	4
N=C(N)NCCCCN1C(=O)N(CCCCNC(=N)N)C(=O)C(Cc2cc(Br)cc(Br)c2)(Cc2cc(Br)cc(Br)c2)C1=O.O=C(O)C(F)(F)F.O=C(O)C(F)(F)F	2
N=C(N)NCCCCN1C(=O)N(CCCCNC(=N)N)C(=O)C(Cc2ccc(F)c3ccccc23)(Cc2ccc(F)c3ccccc23)C1=O.O=C(O)C(F)(F)F.O=C(O)C(F)(F)F	4

stdin: What value of MIC has been recorded for this entry: `NCCCCN1C(=O)N(CCCCN)C(=O)C(Cc2cc(C(F)(F)F)cc(C(F)(F)F)c2)(Cc2cc(C(F)(F)F)cc(C(F)(F)F)c2)C1=O.O=C(O)C(F)(F)F.O=C(O)C(F)(F)F`
stdout: 8

stdin: // query: `NCCCCN1C(=O)N(CCCCN)C(=O)C(Cc2ccc(F)c3ccccc23)(Cc2ccc(F)c3ccccc23)C1=O.O=C(O)C(F)(F)F.O=C(O)C(F)(F)F`
stdout: 4

###

Tested on: Pseudomonas aeruginosa
Test: Antimicrobial activity against Pseudomonas aeruginosa PAO1 assessed as reduction in bacterial growth incubated for 48 hrs by microdilution susceptibility test
Format: functional
value-type: MIC (mg/L)
// units = mg/L; emit number, no label

Examples from the recorded data:
compound-structure	measured-target	value-type	observed-measurement
NCCCCN1C(=O)N(CCCCN)C(=O)C(Cc2ccc3ccccc3c2)(Cc2ccc3ccccc3c2)C1=O.O=C(O)C(F)(F)F.O=C(O)C(F)(F)F	Pseudomonas aeruginosa	MIC	16
NCCCCN1C(=O)N(CCCCN)C(=O)C(Cc2ccc(Br)c(Cl)c2)(Cc2ccc(Br)c(Cl)c2)C1=O.O=C(O)C(F)(F)F.O=C(O)C(F)(F)F	Pseudomonas aeruginosa	MIC	32

stdin: What value of MIC has been recorded for this entry: `N=C(N)NCCCCN1C(=O)N(CCCCNC(=N)N)C(=O)C(Cc2cc(Br)cc(Br)c2)(Cc2cc(Br)cc(Br)c2)C1=O.O=C(O)C(F)(F)F.O=C(O)C(F)(F)F`
stdout: 4

stdin: // query: `CC(C)(C)c1ccc(CC2(Cc3ccc(C(C)(C)C)cc3)C(=O)N(CCCCN)C(=O)N(CCCCN)C2=O)cc1.O=C(O)C(F)(F)F.O=C(O)C(F)(F)F`
stdout: 8

stdin: // query: `CC(C)(C)c1cc(CC2(Cc3cc(C(C)(C)C)cc(C(C)(C)C)c3)C(=O)N(CCCCNC(=N)N)C(=O)N(CCCCNC(=N)N)C2=O)cc(C(C)(C)C)c1.O=C(O)C(F)(F)F.O=C(O)C(F)(F)F`
stdout: 4

###

System: Pseudomonas aeruginosa
Assay: Antimicrobial activity against verona integron-encoded metallo-beta-lactamase-2 producing Pseudomonas aeruginosa K34-7 assessed as reduction in bacterial growth incubated for 48 hrs by microdilution method
Assay type: functional
value-type: MIC

Examples from the recorded data:
compound-structure	measured-target	MIC
CC(C)(C)c1ccc(CC2(Cc3ccc(C(C)(C)C)cc3)C(=O)N(CCCCNC(=N)N)C(=O)N(CCCCNC(=N)N)C2=O)cc1.O=C(O)C(F)(F)F.O=C(O)C(F)(F)F	Pseudomonas aeruginosa	16 µg/mL
NCCCCN1C(=O)N(CCCCN)C(=O)C(Cc2cc(Br)cc(Br)c2)(Cc2cc(Br)cc(Br)c2)C1=O.O=C(O)C(F)(F)F.O=C(O)C(F)(F)F	Pseudomonas aeruginosa	16 µg/mL
N=C(N)NCCCCN1C(=O)N(CCCCNC(=N)N)C(=O)C(Cc2ccc(C(F)(F)F)cc2)(Cc2ccc(C(F)(F)F)cc2)C1=O.O=C(O)C(F)(F)F.O=C(O)C(F)(F)F	Pseudomonas aeruginosa	> 32 µg/mL
N=C(N)NCCCCN1C(=O)N(CCCCNC(=N)N)C(=O)C(Cc2ccc(Br)c(Cl)c2)(Cc2ccc(Br)c(Cl)c2)C1=O.O=C(O)C(F)(F)F.O=C(O)C(F)(F)F	Pseudomonas aeruginosa	16 µg/mL
NCCCCN1C(=O)N(CCCCN)C(=O)C(Cc2ccc(Br)c(Cl)c2)(Cc2ccc(Br)c(Cl)c2)C1=O.O=C(O)C(F)(F)F.O=C(O)C(F)(F)F	Pseudomonas aeruginosa	32 µg/mL

Kindly review the next molecule as well.
stdin: What value of MIC has been recorded for this entry: `NCCCCN1C(=O)N(CCCCN)C(=O)C(Cc2ccc(F)c3ccccc23)(Cc2ccc(F)c3ccccc23)C1=O.O=C(O)C(F)(F)F.O=C(O)C(F)(F)F`
stdout: 32 µg/mL
